Provenance of the data: PubChem BioAssay AID2305

# System: P. falciparum 3D7 growth, pLDH absorbance
# Run Description: blood-stage malaria parasite growth potency – strain 3D7, dose response (AID 2305)
pIC50: −log10 of the molar value.
Known pIC50 of a selection of molecules

{"Molecule": "CCCCCN1CCC(NC(=O)c2ccc(C(=O)Nc3ccc(C(C)C)cc3)cc2)CC1", "Target Under Test": "P. falciparum 3D7 growth, pLDH absorbance", "pIC50": 6.07}
{"Molecule": "O=C(N[C@H]1CCN(Cc2ccc(OCCN3CCNCC3)c(Cl)c2)C1)c1ccc(Cl)c(Cl)c1", "Target Under Test": "P. falciparum 3D7 growth, pLDH absorbance", "pIC50": 5.97}
{"Molecule": "CCC(C)(C)N[C@@H](C)[C@@H](O)c1ccc(C(F)(F)F)cc1", "Target Under Test": "P. falciparum 3D7 growth, pLDH absorbance", "pIC50": 6.12}
{"Molecule": "O=C(/C=C/c1ccc(Cl)cc1)NCCCCCN1CCCC(C(=O)Nc2ccc(Cl)c(Cl)c2)C1 (stereo not given)", "Target Under Test": "P. falciparum 3D7 growth, pLDH absorbance", "pIC50": 6.08}
{"Molecule": "O=S(=O)(/C=C/c1ccccc1)N(Cc1ccc(-c2ccc(CNCCc3ccccn3)cc2)cc1)CC1CCCCN1 (stereo not given)", "Target Under Test": "P. falciparum 3D7 growth, pLDH absorbance", "pIC50": 6.13}

----------
Known pIC50 of a selection of molecules
# System: P. falciparum 3D7 growth, pLDH absorbance
# Run Description: blood-stage malaria parasite growth potency – strain 3D7, dose response (AID 2305)
pIC50: −log10 of the molar value.
Quantity Name: pIC50

{"Molecule": "CN(CCCCCN1CCC(NC(=O)Nc2ccc(C(F)(F)F)cc2)C1)C(=O)/C=C/c1ccc(Cl)c(Cl)c1 (stereo not given)", "Data Value": 6.11}
{"Molecule": "COc1ccc(Nc2nccc(N3CCC(NS(=O)(=O)c4ccc(NC(C)=O)cc4)C3)n2)cc1 (stereo not given)", "Data Value": 6.10}
{"Molecule": "Cc1cc(NN=Cc2cccc([N+](=O)[O-])c2)c2ccc(C(F)(F)F)cc2n1", "Data Value": 6.06}
{"Molecule": "O=S(=O)(NCCN1CCCC1)c1ccc(-c2cccc(CNCc3ccsc3)c2)s1", "Data Value": 6.05}
{"Molecule": "Cc1cc(C)n(-c2nc(Nc3cccc(C(F)(F)F)c3)nc(-n3nc(C)cc3C)n2)n1", "Data Value": 6.44}

----------
# System: P. falciparum 3D7 growth, pLDH absorbance
# Run Description: blood-stage malaria parasite growth potency – strain 3D7, dose response (AID 2305)

{"Molecule": "CO[C@@H]1C[C@@H](C(=O)Nc2ccccc2)N(c2ccc(C#N)c3ccccc23)C1", "Unit Abbrev": "nM", "IC50": 910}
{"Molecule": "CCOc1cc(C(=O)Nc2cccnc2)cc(Br)c1OCCC(C)C", "Unit Abbrev": "nM", "IC50": 1080}
{"Molecule": "Brc1ccc(Nc2ccnc3cc(-c4nccs4)ccc23)cc1Oc1ccnc2cc(-c3nccs3)ccc12", "Unit Abbrev": "nM", "IC50": 1060}
{"Molecule": "O=C(Nc1ccc(N2CCCN(Cc3cccc(F)c3)CC2)cc1)c1ccc(F)cc1", "Unit Abbrev": "nM", "IC50": 840}
{"Molecule": "CN=C(N)c1ccc(NC(=O)C=Cc2ccc(C(=O)Nc3ccc(C(N)=NC)cc3)cc2)cc1", "Unit Abbrev": "nM", "IC50": 30}
{"Molecule": "CCN1CCN(c2cc(C)c3cc(NC(=O)c4ccc(Br)o4)ccc3n2)CC1", "Unit Abbrev": "nM", "IC50": 750}
{"Molecule": "CCN(CC)CCCN(CCCN(CC)CC)c1cc(C)nc(Nc2ccc3cc(Br)ccc3c2)n1", "Unit Abbrev": "nM", "IC50": 570}
{"Molecule": "Cn1ccnc1CNC(=O)c1ccc(-c2cccc(-c3nc4ccc(F)cc4[nH]3)c2)cc1", "Unit Abbrev": "nM", "IC50": 980}
{"Molecule": "O=C(NCc1ccc(C(=O)NC2CCCCC2)cc1)c1ccc(O)c(-c2ccc(Cl)c(Cl)c2)c1", "Unit Abbrev": "nM", "IC50": 880}
{"Molecule": "CCOc1ccc2nc(C)cc(NN=Cc3cccc(C)n3)c2c1", "Unit Abbrev": "nM", "IC50": 750}
{"Molecule": "Cc1cc2nc(-c3ccc(C(=O)NCc4cccc(F)c4)cc3)[nH]c2cc1C", "Unit Abbrev": "nM", "IC50": 960}
{"Molecule": "CN1CCN(CC(=O)Nc2cccc(-c3cccc(-c4nc5ccc(F)cc5[nH]4)c3)c2)CC1", "Unit Abbrev": "nM", "IC50": 740}
{"Molecule": "CC(C)OCCCNC(=O)c1nc(-c2cccc(C(F)(F)F)c2)sc1C(C)C", "Unit Abbrev": "nM", "IC50": 1160}
{"Molecule": "N#Cc1ccc(N(CCCO)Cc2ccccc2C(F)(F)F)cc1C(F)(F)F", "Unit Abbrev": "nM", "IC50": 980}
{"Molecule": "Nc1c2c(nc3ccc(NC(=O)c4ccc([N+](=O)[O-])cc4)cc13)CCCC2", "Unit Abbrev": "nM", "IC50": 240}
{"Molecule": "CNC(=S)NN=C(C)c1ccccn1", "Unit Abbrev": "nM", "IC50": 270}
{"Molecule": "COc1ccc(COc2cc(NCCCN)nc3ccccc23)cc1", "Unit Abbrev": "nM", "IC50": 1280}
{"Molecule": "COc1ccc2nccc([C@@H](O)CN3CCC(NCc4nc5c(C#N)cccc5[nH]4)CC3)c2c1", "Unit Abbrev": "nM", "IC50": 1000}
{"Molecule": "CCNc1cc(C)nc(Nc2ccc(NC(=O)c3ccccc3Cl)cc2)n1", "Unit Abbrev": "nM", "IC50": 1010}
{"Molecule": "CCOC(=O)c1c(C)n(-c2ccc(Cl)cc2)c2ccc(OC(=O)C=Cc3ccccc3)cc12", "Unit Abbrev": "nM", "IC50": 700}
{"Molecule": "COc1cc2nc(N3CCC(CNC(=O)c4ccc(-c5ccccc5)cc4)CC3)nc(N)c2cc1OC", "Unit Abbrev": "nM", "IC50": 570}
{"Molecule": "COc1ccc(-c2cccc(NC(=O)c3ccc(Cl)cc3)c2)cc1CN1CCCC1", "Unit Abbrev": "nM", "IC50": 780}
{"Molecule": "CC[C@H](NC(=O)c1c(CCCN2CCN(c3ccccc3)CC2)c(-c2ccccc2)nc2cc(O)ccc12)c1ccccc1", "Unit Abbrev": "nM", "IC50": 780}
{"Molecule": "N#Cc1ccc(-c2ccc(OCC(O)CN3CCCN(C(=O)C(c4ccc5c(c4)OCO5)N4CCN(C/C=C/c5ccccc5)CC4)CC3)cc2)cc1 (stereo not drawn)", "Unit Abbrev": "nM", "IC50": 650}
{"Molecule": "N[C@@H](CCN1CCC(c2cccc(O)c2)CC1)Cc1ccc(F)c(F)c1", "Unit Abbrev": "nM", "IC50": 1110}
{"Molecule": "COc1cc2nc(NCCCN3CCCCC3)nc(NCc3ccccc3)c2cc1OC", "Unit Abbrev": "nM", "IC50": 1000}
{"Molecule": "CC(C)CNCc1ccc(-c2cccc(CN(C(=O)Nc3ccccc3)C3CCN(Cc4ccccc4)CC3)c2)cc1", "Unit Abbrev": "nM", "IC50": 410}
{"Molecule": "CCOC(=O)CC[C@H](NC(=O)c1ccc(NS(=O)(=O)c2ccc(-c3cnc(N)[nH]c3=O)cc2)cc1)C(=O)OCC", "Unit Abbrev": "nM", "IC50": 170}
{"Molecule": "CC(C)NCc1ccc(OCc2cccc(COc3ccc(CNC(C)C)cc3I)c2)c(I)c1", "Unit Abbrev": "nM", "IC50": 90}
{"Molecule": "Cc1cc(NN=Cc2cccc([N+](=O)[O-])c2)c2ccccc2n1", "Unit Abbrev": "nM", "IC50": 730}
{"Molecule": "Oc1ccc(CCCNc2nc(NCc3ccccc3-c3ccccc3)nc(NC3CCNCC3)n2)cc1", "Unit Abbrev": "nM", "IC50": 860}
{"Molecule": "CCCC(C)NC[C@@H](O)[C@H](Cc1ccccc1)NC(=O)c1cc(NCC)cc(N2CCCCS2(=O)=O)c1 (stereo partly drawn)", "Unit Abbrev": "nM", "IC50": 160}
{"Molecule": "O=C(Nc1cccc(C(F)(F)F)c1)c1ccc(S(=O)(=O)NCC2CCCN(CC3CCCCC3)C2)cc1 (stereo not drawn)", "Unit Abbrev": "nM", "IC50": 900}
{"Molecule": "COc1ccccc1CCNc1nc(C)cc(N[C@@H](Cc2ccccc2)C(=O)NCc2cccc(F)c2)n1", "Unit Abbrev": "nM", "IC50": 870}
{"Molecule": "CCN(CCCN1CCCCC1)c1cc(C)nc(Nc2cc(Cl)cc(Cl)c2)n1", "Unit Abbrev": "nM", "IC50": 290}
{"Molecule": "COc1cccc(NC(=O)Nc2ccc(Nc3nc(C)cc(N(C)C)n3)cc2)c1", "Unit Abbrev": "nM", "IC50": 170}
{"Molecule": "Cc1cn(CC(=O)Nc2cccc(-c3cccc(-c4nc5c(C)cccc5[nH]4)c3)c2)c(=O)[nH]c1=O", "Unit Abbrev": "nM", "IC50": 580}
{"Molecule": "COc1ccccc1C1CCN(C2CCC(NC(=O)/C=C/c3cc(F)cc(F)c3)CC2)CC1 (stereo not drawn)", "Unit Abbrev": "nM", "IC50": 1110}
